- Tested on: NCI-H157
- method: Antiproliferative activity against human NCI-H157 cells after 48 hrs by MTT assay
- Type: functional, cell-based
- particulars: NCI-H157, 48 h
parameterMeasured: IC50 (µM)

Below are worked cases with known answers.
| chemicalSmiles | systemTested | IC50, µM |
| --- | --- | --- |
| CC(=O)[C@H]1CC[C@H]2[C@@H]3CC=C4C[C@@H](OC(=O)NCCNC(=O)/C(C#N)=C/c5cccc([N+](=O)[O-])c5)CC[C@]4(C)[C@H]3CC[C@]12C | NCI-H157 | 30.6 |
| CC(=O)[C@H]1CC[C@H]2[C@@H]3CC=C4C[C@@H](OC(=O)NCCNC(=O)/C(C#N)=C/c5ccc(C#N)cc5)CC[C@]4(C)[C@H]3CC[C@]12C | NCI-H157 | 24.5 |
| CC(=O)[C@H]1CC[C@H]2[C@@H]3CC=C4C[C@@H](OC(=O)NCCNC(=O)/C(C#N)=C/c5cccc(C#N)c5)CC[C@]4(C)[C@H]3CC[C@]12C | NCI-H157 | 21.3 |

[1] COc1cccc2c1C(=O)c1c(O)c3c(c(O)c1C2=O)C[C@@](O)(C(=O)CO)C[C@@H]3O[C@H]1C[C@H](N)[C@H](O)[C@H](C)O1
[2] CC(=O)[C@H]1CC[C@H]2[C@@H]3CC=C4C[C@@H](OC(=O)NCCNC(=O)/C(C#N)=C/c5cccc(F)c5)CC[C@]4(C)[C@H]3CC[C@]12C
Which entry has a larger number for IC50, 1 or 2 ? Answer with the label corresponding to your selection. 2
